# assay.remarks: Phase 1/2 first-in-human study, DCC-3116 monotherapy dose escalation: plasma pharmacokinetics
# Type: in vivo
# condition.parameters: human, plasma, oral, 50 mg, Cohort A1, 50 mg BID monotherapy, Cycle 1 Day 15; read-out: AUC0-10 h (GM [CV %])

- cpd.smiles: "CCc1cc(N2CCN(C)CC2)ccc1Nc1ncc(C(F)(F)F)c(NCCCN2CCOCCC2=O)n1"
  AUC(0-t) [ng·h/mL]: 3540

* * *

# assay.remarks: Phase 1/2 first-in-human study, DCC-3116 monotherapy dose escalation: plasma pharmacokinetics
# Format: in vivo
# condition.parameters: human, plasma, oral; Cohort A4, 300 mg BID monotherapy, Cycle 1 Day 15; read-out: tmax (Median [Min, Max])
experimental.endpoint: Tmax

- compound: "CCc1cc(N2CCN(C)CC2)ccc1Nc1ncc(C(F)(F)F)c(NCCCN2CCOCCC2=O)n1 [DCC-3116]"
  measured: "2 h"

* * *

# assay.remarks: MiaPaca-2 xenograft PK/PD model: sotorasib plasma PK with DCC-3116
# Format: in vivo, mouse
# condition.parameters: female, Envigo Nude, mouse, plasma, po, 10 mg/kg, 10 mg/kg sotorasib + 10 mg/kg DCC-3116
experimental.endpoint: Cmax (ng/mL)

- molecule: "C=CC(=O)N1CCN(c2nc(=O)n(-c3c(C)ccnc3C(C)C)c3nc(-c4c(O)cccc4F)c(F)cc23)[C@@H](C)C1 [sotorasib]"
  experimental.endpoint: "Cmax"
  units.of.measure: "ng/mL"
  measured: 76

* * *

# assay.remarks: MiaPaca-2 xenograft PK/PD model: sotorasib plasma PK with DCC-3116
# Assay type: in vivo, mouse
# condition.parameters: female, Envigo Nude, mouse, plasma, po, 10 mg/kg, 10 mg/kg sotorasib + 100 mg/kg DCC-3116
experimental.endpoint: AUC(0-t) (ng·h/mL)

- cpd.smiles: "C=CC(=O)N1CCN(c2nc(=O)n(-c3c(C)ccnc3C(C)C)c3nc(-c4c(O)cccc4F)c(F)cc23)[C@@H](C)C1"
  experimental.endpoint: "AUC(0-t)"
  units.of.measure: "ng·h/mL"
  measured: 385

* * *

# assay.remarks: MiaPaca-2 xenograft PK/PD model: sotorasib plasma PK with DCC-3116
# Assay type: in vivo, mouse
# condition.parameters: female, Envigo Nude, mouse, plasma, po, 10 mg/kg, 10 mg/kg sotorasib as a single agent

- cpd.smiles: "C=CC(=O)N1CCN(c2nc(=O)n(-c3c(C)ccnc3C(C)C)c3nc(-c4c(O)cccc4F)c(F)cc23)[C@@H](C)C1"
  units.of.measure: "ng/mL"
  Cmax: 296

* * *

# assay.remarks: Phase 1/2 first-in-human study, DCC-3116 monotherapy dose escalation: plasma pharmacokinetics
# Type: in vivo
# condition.parameters: human, plasma, oral, 100 mg, Cohort A2, 100 mg BID monotherapy, Cycle 1 Day 15; read-out: AUC0-10 h (GM [CV %])

- cpd.smiles: "CCc1cc(N2CCN(C)CC2)ccc1Nc1ncc(C(F)(F)F)c(NCCCN2CCOCCC2=O)n1"
  AUC(0-t) / ng·h/mL: 8540

* * *

# assay.remarks: Nude mouse PK study with adagrasib and DCC-3116 treatment
# Format: in vivo
# condition.parameters: female, athymic nude, mouse, plasma, po, 25 mg/kg, DCC-3116 Cmax in plasma (average), DCC-3116 single agent at 25 mg/kg PO BID, 5 days
experimental.endpoint: Cmax (ng/mL)

- cpd.smiles: "CCc1cc(N2CCN(C)CC2)ccc1Nc1ncc(C(F)(F)F)c(NCCCN2CCOCCC2=O)n1"
  experimental.endpoint: "Cmax"
  units.of.measure: "ng/mL"
  measured: 749

* * *

# assay.remarks: Phase 1/2 first-in-human study, DCC-3116 monotherapy dose escalation: plasma pharmacokinetics
# Format: in vivo
# condition.parameters: human, plasma, oral; Cohort A2, 100 mg BID monotherapy, Cycle 1 Day 15
experimental.endpoint: Cmax (ng/mL)

- cpd.smiles: "CCc1cc(N2CCN(C)CC2)ccc1Nc1ncc(C(F)(F)F)c(NCCCN2CCOCCC2=O)n1"
  experimental.endpoint: "Cmax"
  units.of.measure: "ng/mL"
  measured: 1140

* * *

# assay.remarks: Phase 1/2 first-in-human study, DCC-3116 monotherapy dose escalation: plasma pharmacokinetics
# Assay type: in vivo
# condition.parameters: human, plasma, oral; Cohort A1, 50 mg BID monotherapy, Cycle 1 Day 15
experimental.endpoint: Cmax (ng/mL)

- cpd.smiles: "CCc1cc(N2CCN(C)CC2)ccc1Nc1ncc(C(F)(F)F)c(NCCCN2CCOCCC2=O)n1"
  experimental.endpoint: "Cmax"
  units.of.measure: "ng/mL"
  measured: 724

* * *

# assay.remarks: Nude mouse PK study with adagrasib and DCC-3116 treatment
# Assay type: in vivo
# condition.parameters: female, athymic nude, mouse, plasma, po, 50 mg/kg, DCC-3116 Cmax in plasma (average), 50 mg/kg DCC-3116 in combination with adagrasib

- cpd.smiles: "CCc1cc(N2CCN(C)CC2)ccc1Nc1ncc(C(F)(F)F)c(NCCCN2CCOCCC2=O)n1"
  Cmax / ng/mL: 1210

* * *

# assay.remarks: Phase 1/2 first-in-human study, DCC-3116 monotherapy dose escalation: plasma pharmacokinetics
# Assay type: in vivo
# condition.parameters: human, plasma, oral, 50 mg, Cohort A1, 50 mg BID, Cycle 1 Day 15; predose concentration imputed to 12 hours; read-out: AUC0-12 h (GM [CV %])
experimental.endpoint: AUC(0-t) (ng·h/mL)

- molecule: "CCc1cc(N2CCN(C)CC2)ccc1Nc1ncc(C(F)(F)F)c(NCCCN2CCOCCC2=O)n1 [DCC-3116]"
  experimental.endpoint: "AUC(0-t)"
  measured: 3980

* * *

# assay.remarks: Phase 1/2 first-in-human study, DCC-3116 monotherapy dose escalation: plasma pharmacokinetics
# Type: in vivo
# condition.parameters: human, plasma, oral; Cycle 1 Day 15, after exclusion of profiles with tmax≥10 h; read-out: tmax range

- cpd.smiles: "CCc1cc(N2CCN(C)CC2)ccc1Nc1ncc(C(F)(F)F)c(NCCCN2CCOCCC2=O)n1"
  Tmax: "2 to 8 h"

* * *

# assay.remarks: MiaPaca-2 xenograft PK/PD model: sotorasib plasma PK with DCC-3116
# Type: in vivo, mouse
# condition.parameters: female, Envigo Nude, mouse, plasma, po, 10 mg/kg, 10 mg/kg sotorasib as a single agent

- compound: "C=CC(=O)N1CCN(c2nc(=O)n(-c3c(C)ccnc3C(C)C)c3nc(-c4c(O)cccc4F)c(F)cc23)[C@@H](C)C1 [sotorasib]"
  AUC(0-t) (µg·h/mL): 0.963

* * *

# assay.remarks: Nude mouse PK study with adagrasib and DCC-3116 treatment
# Format: in vivo
# condition.parameters: female, athymic nude, mouse, plasma, po, 50 mg/kg, DCC-3116 Cmax in plasma (average), DCC-3116 single agent at 50 mg/kg PO BID, 5 days
experimental.endpoint: Cmax (ng/mL)

- cpd.smiles: "CCc1cc(N2CCN(C)CC2)ccc1Nc1ncc(C(F)(F)F)c(NCCCN2CCOCCC2=O)n1"
  experimental.endpoint: "Cmax"
  measured: 1380

* * *

# assay.remarks: Nude mouse PK study with adagrasib and DCC-3116 treatment
# Assay type: in vivo
# condition.parameters: female, athymic nude, mouse, plasma, po, 25 mg/kg, DCC-3116 AUC0-2 h (average), 25 mg/kg DCC-3116 in combination with adagrasib

- cpd.smiles: "CCc1cc(N2CCN(C)CC2)ccc1Nc1ncc(C(F)(F)F)c(NCCCN2CCOCCC2=O)n1"
  units.of.measure: "ng·h/mL"
  AUC(0-t): 1150

* * *

# assay.remarks: Phase 1/2 first-in-human study, DCC-3116 monotherapy dose escalation: plasma pharmacokinetics
# Type: in vivo
# condition.parameters: human, plasma, oral, 200 mg, Cohort A3, 200 mg BID, Cycle 1 Day 15; predose concentration imputed to 12 hours; read-out: AUC0-12 h (GM [CV %])
experimental.endpoint: AUC(0-t) (ng·h/mL)

- molecule: "CCc1cc(N2CCN(C)CC2)ccc1Nc1ncc(C(F)(F)F)c(NCCCN2CCOCCC2=O)n1 [DCC-3116]"
  experimental.endpoint: "AUC(0-t)"
  measured: 15600
